System: EKVX
Test: NCI tumour cell line growth inhibition, 48 h
The source made the active and inactive calls. No stated cut-off is given here; in the data, active = GI50 up to about 1.1 µM and inactive = higher.
Entries annotated with measured GI50
Property Name: GI50

1) COc1cc(OC)c(OC)cc1/C=C\c1nccc2ccccc12 = 22.2 µM (inactive)
2) CCCC(=O)OCOC(=O)N(C)/N=N/c1ccc(C(=O)OCC)cc1 = 37.9 µM (inactive)
3) CCc1ccc(Nc2cc(=O)[nH]c(=S)n2C)cc1 = 88.3 µM (inactive)
4) Cn1c(=O)[nH]n(-c2ccc3ccccc3c2)c1=O = > 100 µM (inactive)
5) O=C1C=Cc2ncccc2C1=O = 23.5 µM (inactive)

----------
System: HCC 2998
Experiment: NCI tumour cell line growth inhibition, 48 h
Calls of active or inactive are those of the source. Cut-off read from the data, not from the text of the source: active = GI50 up to about 1.1 µM and inactive = higher.
Property Name: GI50

1) CC(CO)[C@H]1OC(=O)C=C2[C@@]13O[C@@H]3[C@H]1OC(=O)[C@@]3(C)[C@H]4O[C@H]4C[C@@]2(C)[C@@H]13 (stereo not given in full) = 1.65 µM (inactive)
2) C=CCCCN1CCCC(C)C1=S (stereo not given) = > 100 µM (inactive)
3) COc1ccc(/C=C2\CCC(C)(CN(C)C)C2=O)cc1Br (stereo not given) = 20.8 µM (inactive)
4) CN(N)c1nc(N)c(C#N)c(C#N)c1C#N = > 10 µM (inactive)
5) CC(O[Si](C)(C)C(C)(C)C)[C@H](NC(=O)OCC(Cl)(Cl)Cl)C(=O)O (stereo not given in full) = > 100 µM (inactive)

----------
Tested on: HCC 2998
Assay: NCI tumour cell line growth inhibition, 48 h
The source made the active and inactive calls. Rule as the data show it: active = GI50 up to about 1.1 µM and inactive = higher.
Labels: YES (active), NO (inactive)

1) C[C@]12Cc3cnc(-c4ccccc4)nc3C[C@@H]1CC[C@@H]1[C@@H]2CC[C@@]2(C)[C@H]1CC[C@]2(C)O = NO
2) CC(=O)OC1CCCn2c1nc1c2C(=O)C(C)=C(N2CC2)C1=O (configuration not stated) = YES
3) C=C1c2[nH]c3ccccc3c2CC(C(=O)O)N1C(O)c1ccc(S(=O)(=O)O)cc1 (configuration not stated) = NO
4) CC1=NN(C(=O)CC(=O)Nc2cccc(C)c2)C(=O)C1/N=N\c1ccc(S(=O)(=O)c2ccc(/N=N/C3C(=O)N(C(=O)CC(=O)Nc4cccc(C)c4)N=C3C)cc2)cc1 (configuration not stated) = NO
5) Nc1cc(S(=O)(=O)O)cc2cc(S(=O)(=O)O)c(/N=N/c3ccc(-c4ccc(/N=N/c5c(S(=O)(=O)O)cc6cc(S(=O)(=O)O)cc(N)c6c5O)cc4)cc3)c(O)c12 = NO
6) CCCC(=O)OCOC(=O)N(C)/N=N/c1ccc(C(=O)OCC)cc1 = NO
7) O=C(c1ccco1)C1CC(c2c(O)ccc3ccccc23)=NN1 (configuration not stated) = NO
8) O=c1c2cc(I)ccc2nc(SCc2nnco2)n1Cc1ccccc1 = NO
9) CC(=O)O[C@H]1C[C@@H](OC(C)=O)[C@@](C)(O)[C@@H]2[C@@H](OC(C)=O)[C@@]3(O)[C@H](/C=C(/CO)[C@H]4O[C@H]4[C@@H](OC(C)=O)[C@@]12C)OC(=O)[C@@H]3C = NO
10) NC(=O)N1N=C2c3ccccc3SC[C@H]2[C@@H]1c1ccccc1 = NO
11) CCOC(=O)NC(=O)c1cn(CCN2CCN(C(=O)CCCCCCCCCCNc3ncnc4c3ncn4C3OC(CO)C(O)C3O)CC2)c(=O)[nH]c1=O (configuration not stated) = NO
12) CCCO/S(=N\S(=O)(=O)c1ccccc1)c1ccccc1[N+](=O)[O-] (configuration not stated) = NO
13) COc1cc2nc3c(=C(C#N)C#N)c4ccccc4n3c(=O)c2cc1OC = NO
14) CN(CCNC(=O)c1cc(-c2ccccc2)nc2ccccc12)CCNC(=O)c1cc(-c2ccccc2)nc2ccccc12 = NO
15) O=C(/C(=C/c1cccs1)c1ccccc1)c1ccccc1 = NO
16) CN1C/C(=C\c2ccccc2[N+](=O)[O-])C(=O)/C(=C/c2ccccc2[N+](=O)[O-])C1 = YES
17) COc1ccc(C(OCC2OC(n3cc(C)c(=O)[nH]c3=O)CC2n2cc(Cn3cc(I)c(=O)[nH]c3=O)nn2)(c2ccccc2)c2ccccc2)cc1 (configuration not stated) = NO

----------
Tested on: NCI-H23
Assay: NCI tumour cell line growth inhibition, 48 h
Active and inactive are the calls of the source. No stated cut-off is given here; in the data, active = GI50 up to about 1.1 µM and inactive = higher.
Labels: YES for active, NO for inactive

1) Cc1ccc(Nc2nc(=O)[nH]c(=O)[nH]2)cc1N=[N+]=[N-] = NO
2) NS(=O)(=O)c1ccc(/N=N/c2ccc(O)c(O)c2)cc1 = NO
3) CC(C)C1(C)N=C(C(F)(F)F)c2cc(C(=O)C(F)(F)F)c3ccccc3c2N1 (stereo unspecified) = NO
4) Cc1nc(Nc2ccccc2Cl)sc1C(=O)CC(=O)C(=O)Nc1c(Cl)cccc1Cl = NO
5) O=C1NC(=S)N/C1=C/c1c(-c2ccccc2)[nH]c2ccccc12 = NO
6) CCC12CN(C(=O)OC)C3C(Br)C1CCC(=O)C32 (stereo unspecified) = NO
7) Nc1cc(S(=O)(=O)O)cc2cc(S(=O)(=O)O)c(/N=N/c3ccc(-c4ccc(/N=N/c5c(S(=O)(=O)O)cc6cc(S(=O)(=O)O)cc(N)c6c5O)cc4)cc3)c(O)c12 = NO
8) O=C(Nc1ccccc1C(=O)O)/C(=C/c1ccccc1)NC(=O)c1ccccc1 = NO
9) S=C1SC(=N\c2ccccc2)/C(=N/c2ccccc2)N1c1ccccc1 = NO
10) Cc1ccc2c(c1)C(=C(C#N)C#N)CCCS2(=O)=O = NO
11) COC(=O)C1(Cc2ccccc2)Cc2cc3c(cc2C1)CCC3 = NO
12) O=C1/C(=C/c2ccc([N+](=O)[O-])cc2)C(=O)N(c2ccccc2)C1c1ccccc1 (stereo unspecified) = NO
13) Cn1c(=O)[nH]n(-c2ccc3ccccc3c2)c1=O = NO
14) Cc1ccc(C2=C(C#N)C(=O)N3CCN=C3S2)cc1 = NO
15) CCN(CC)c1cc2c3c(c1)CCCN3CCC2 = NO
16) CC1(C)[C@@H]2C[C@H]1C(Cc1ccccc1C[C@H]1c3cc(-c4ccccn4)ncc3[C@H]3C[C@@H]1C3(C)C)c1cc(-c3ccccn3)ncc12 (stereo partly specified) = YES
17) O=c1oc2ccc3ccccc3c2cc1-c1nc2ccccc2o1 = NO
18) O=[N+]([O-])c1ccc2c(c1)OCCOCCOc1ccc([N+](=O)[O-])cc1OCCOCCO2 = NO
19) CC(C)=CC(=O)Cc1nc2cc(C)c(C)cc2[nH]c1=O = NO
20) CCOC(=O)CCC(NC(=O)c1ccc(Nc2nc3cc(C(F)(F)F)ccc3nc2-c2ccccc2)cc1)C(=O)OCC (stereo unspecified) = NO
21) C[Si](C)(C)OC1(C#N)c2ccccc2CCCC12CCCC2 (stereo unspecified) = NO
22) O=C(c1ccccc1)c1ccc(COc2ccc(C(c3c(O)c4ccccc4oc3=O)c3c(O)c4ccccc4oc3=O)cc2)cc1 = NO
23) C=C(C)[C@@H]1CC=C(CO)CC1 = NO
24) CN1C2CCC1CC(C)(O)C2 (stereo unspecified) = NO
25) C=CC1(CC/C(=C\[N+](=O)[O-])c2ccc(OC)c(OC)c2)OCC(C)(C)CO1 = NO
26) COC(=O)/C(=N\NC(N)=S)C(C(=O)OC)C(=O)C(=O)Nc1ccc(C)cc1 (stereo unspecified) = NO
27) C[C@]12Cc3cnc(-c4ccccc4)nc3C[C@@H]1CC[C@@H]1[C@@H]2CC[C@@]2(C)[C@H]1CC[C@]2(C)O = NO
28) C[S+]([O-])c1ccc(COP(N)(=O)N(CCCl)CCCl)cc1 (stereo unspecified) = NO
29) O=C(C1=CCC2(CC1)OCCO2)N(Cc1ccccc1)c1ccccc1I = NO
30) O=[N+]([O-])c1cccc2nc3ccccc3c(NCCCN3CCOCC3)c12 = YES
31) Clc1ccccc1C1=NN(c2ccccc2)C2c3ccccc3OCC12 (stereo unspecified) = NO
32) CC(C)(C)C(=O)C(CC(=O)c1ccccc1)C(=O)C(C)(C)C = NO
33) Cc1ccc(OP(=O)(Oc2ccc(C)cc2)N2C=Cc3ccccc3C2C#N)cc1 (stereo unspecified) = NO
34) CNC(=O)N1CN(c2ccccc2)C2(CCN(CCCC(=O)c3ccc(F)cc3)CC2)C1=O = NO
35) C=CC(Br)(CBr)CCC(Br)C(C)(C)Cl (stereo unspecified) = NO
36) O=C(O)Cn1ccc(=O)c2ccc([N+](=O)[O-])cc21 = NO
37) COc1ccc2c(c1)/C(=C\c1c(Cl)n(-c3ccccc3)c3ccccc13)C(=O)N2 = NO
38) CCCO/S(=N\S(=O)(=O)c1ccccc1)c1ccccc1[N+](=O)[O-] (stereo unspecified) = NO
39) COC(=O)C1Cc2c([nH]c3ccccc23)-c2[nH]c3ccccc3c2CC(NC(C)=O)C(=O)N2CCCC2C(=O)N1 (stereo unspecified) = NO
40) Clc1ccc(C2=NOC3C4CCC(C4)C23)cc1 (stereo unspecified) = NO
41) NC(Cc1ccc(S(=O)(=O)O)cc1)C(=O)NC(CCCCNC(=O)NCCCCC(NC(=O)C(N)Cc1ccc(S(=O)(=O)O)cc1)C(=O)NC(Cc1ccc(S(=O)(=O)O)cc1)C(=O)O)C(=O)NC(Cc1ccc(S(=O)(=O)O)cc1)C(=O)O (stereo unspecified) = NO
